tested on: MCF7 complex spheroid growth, % test/control; test: Anticancer human tumor MCF7 cell line growth inhibition [Asc]; settings: second compound 0.00949 µM; first compound 1 µM; active compounds read low;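 further: spheroids exposed to compounds for 7 days; 100% = DMSO vehicle control wells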
Measured viability, T/C accompanies every entry in the list below.

| COMPOUND | viability, T/C (%) |
| --- | --- |
| COc1c(OCCCN2CCOCC2)ccc2c3n(c(=NC(=O)c4cnc(N)nc4)nc12)CCN3 + CCN1C(C(=O)NC23CCC(C(=O)O)(CC2)CC3)C(c2cccc(Cl)c2F)C2(C(=O)Nc3cc(Cl)ccc32)C12CCCCC2 | 9.39 |
| O=C(c1ccc(F)c(F)c1Nc1ccc(I)cc1F)N1CC(O)([C@@H]2CCCCN2)C1 + CCN1C(C(=O)NC23CCC(C(=O)O)(CC2)CC3)C(c2cccc(Cl)c2F)C2(C(=O)Nc3cc(Cl)ccc32)C12CCCCC2 | 100 |
| O=C(c1cc(Cc2n[nH]c(=O)c3ccccc23)ccc1F)N1CCN(C(=O)C2CC2)CC1 + CCN1C(C(=O)NC23CCC(C(=O)O)(CC2)CC3)C(c2cccc(Cl)c2F)C2(C(=O)Nc3cc(Cl)ccc32)C12CCCCC2 | 106 |
| C=CC(=O)N1CCN(c2nc(=O)n(-c3c(C)ccnc3C(C)C)c3nc(-c4c(O)cccc4F)c(F)cc23)C(C)C1 (stereo unspecified) + CCN1C(C(=O)NC23CCC(C(=O)O)(CC2)CC3)C(c2cccc(Cl)c2F)C2(C(=O)Nc3cc(Cl)ccc32)C12CCCCC2 | 107 |
| CCN1CCN(Cc2ccc(Nc3ncc(F)c(-c4cc(F)c5nc(C)n(C(C)C)c5c4)n3)nc2)CC1 + CCN1C(C(=O)NC23CCC(C(=O)O)(CC2)CC3)C(c2cccc(Cl)c2F)C2(C(=O)Nc3cc(Cl)ccc32)C12CCCCC2 | 71.7 |
| C#Cc1c(F)ccc2cc(O)cc(-c3ncc4c(N5CC6CCC(C5)N6)nc(OCC56CCCN5CC(F)C6)nc4c3F)c12 (stereo unspecified) + CCN1C(C(=O)NC23CCC(C(=O)O)(CC2)CC3)C(c2cccc(Cl)c2F)C2(C(=O)Nc3cc(Cl)ccc32)C12CCCCC2 | 102 |
